// provenance: patent US8372865B2

# Measured Target: P2X7 receptor (UniProt Q99572)
# Measurement Protocol: pKi of Table 1 (assay not stated)
# Type: cell-based
Outcome Measure: pKi

>>> reading("Cc1cc2c(cc1NC(=O)C1=CNC(=O)C[C@H]1c1ccc(F)cc1)NC(=O)CO2")
5.56
>>> reading("CCc1c(NC(=O)C2=CNC(=O)C[C@H]2c2ccc(F)cc2)ccc2ncccc12")
7.69
>>> reading("CCc1cc2ccn(CCO)c2cc1NC(=O)C1=CNC(=O)C[C@H]1c1ccc(F)cc1")
7.575
>>> reading("O=C1C[C@@H](c2ccc(F)cc2)C(C(=O)Nc2cccc3cnccc23)=CN1")
6.425
>>> reading("CCc1cc2cnn(C)c2cc1NC(=O)C1=CNC(=O)C[C@H]1c1ccc(F)cc1")
7.74
>>> reading("CCc1cc2ncccc2cc1NC(=O)C1=CNC(=O)C[C@H]1c1ccc(F)cc1")
6.673
>>> reading("Cc1ccc2ncccc2c1NC(=O)C1=CNC(=O)C[C@H]1c1cccc(F)c1")
7.695
>>> reading("CCc1c(NC(=O)C2=CNC(=O)C[C@H]2c2ccc(F)cc2)ccc2nc(C)ccc12")
7.18
>>> reading("Cc1ccc2ncccc2c1NC(=O)C1=CNC(=O)C[C@H]1c1ccc(F)cc1")
7.64
>>> reading("CCc1cc2c(cc1NC(=O)C1=CNC(=O)C[C@H]1c1ccc(F)cc1)N(C)C(=O)CC2")
6.805
>>> reading("Cc1ccc2c(=O)n(C)ccc2c1NC(=O)C1=CNC(=O)C[C@H]1c1ccc(F)cc1")
7.4375
>>> reading("Cc1cc2c(C)cn(CCO)c2cc1NC(=O)C1=CNC(=O)C[C@H]1c1ccc(F)cc1")
6.89
>>> reading("O=C1C[C@@H](c2ccc(F)cc2)C(C(=O)Nc2cc3c(cc2Br)OCC(=O)N3CCO)=CN1")
5.25
>>> reading("O=C1CC(c2cccc(F)c2)C(C(=O)Nc2cccc3[nH]ccc23)=CN1 (centres unmarked)")
5.86
>>> reading("CCc1cc2cnn(C)c2cc1NC(=O)C1=CNC(=O)C[C@H]1c1cccc(F)c1")
7.825
>>> reading("Cc1ccc2c(C)nccc2c1NC(=O)C1=CN(C)C(=O)C[C@H]1c1ccc(F)cc1")
6.045
>>> reading("CCc1cc2c(cc1NC(=O)C1=CNC(=O)C[C@H]1c1ccc(F)cc1)N(C)C(=O)CO2")
6.88
